Where do these numbers come from? They come from the supplement of paper PMC7156485.

Test system: TDF
assay.protocol: H1.0 immunofluorescence intensity relative to DMSO (% of DMSO); higher = stronger H1.0 induction, active = 120 or more
conditions: concentration: 10 µM; 24 h
measurement.kind: H1.0 immunofluorescence intensity

Prompt: Which H1.0 immunofluorescence intensity value is on record for Cc1c(N)nc(C(CC(N)=O)NCC(N)C(N)=O)nc1C(=O)NC(C(=O)NC(C)C(O)C(C)C(=O)NC(C(=O)NCCc1nc(-c2nc(C(=O)NCCC[S+](C)C)cs2)cs1)C(C)O)C(OC1OC(CO)C(O)C(O)C1OC1OC(CO)C(O)C(OC(N)=O)C1O)c1cnc[nH]1.O=S(=O)([O-])O (configuration not stated) [Bleomycin sulfate] ?
Response: 88.5 (inactive)

Prompt: # input molecule: Clc1cnc(Oc2ccc(Oc3ncc(Cl)cc3Cl)cc2)c(Cl)c1 ; wanted: its H1.0 immunofluorescence intensity
Response: 97.1 (inactive)

Prompt: Name the recorded H1.0 immunofluorescence intensity for CNC1CC2OC(C)(C1OC)n1c3ccccc3c3c4c(c5c6ccccc6n2c5c31)C(=O)NC4 (configuration not stated) .
Response: 149 (active)

Prompt: Entry CC1=CC23C(=O)C(C=C(CO)C(O)C2(O)C1O)C1C(CC3C)C1(C)C (configuration not stated) : reported H1.0 immunofluorescence intensity = ?
Response: 94.7 (inactive)

Prompt: Any idea what its H1.0 immunofluorescence intensity is? The molecule is CN1C2CC(=O)CC1C(O)C2 (configuration not stated) [6-Hydroxytropinone]
Response: 88.5 (inactive)

Prompt: Query (molecule): CC(=O)OCC12CCC(C)=CC1OC1C(O)C(OC(C)=O)C2(C)C12CO2 (configuration not stated) ; field requested: H1.0 immunofluorescence intensity
Response: 128 (active)

Prompt: Query: H1.0 immunofluorescence intensity; subject: CC1=C2C3OC(=O)C(C)C3CCC2(C)C=CC1=O (configuration not stated)
Response: 95.5 (inactive)

Prompt: Which H1.0 immunofluorescence intensity value belongs to COC1C=C2CCN(C)C2C2c3cc4c(cc3C(=O)OC12)OCO4.O=[N+]([O-])O (configuration not stated) [Ungerine nitrate] ?
Response: 96.5 (inactive)

Prompt: Which H1.0 immunofluorescence intensity is listed for CCCN(CCC)C1CCc2c(F)ccc(O)c2C1.Cl (stereo not drawn) [R(+)-UH-301 hydrochloride] ?
Response: 89.2 (inactive)

----------
System: TDF
assay.protocol: H1.0 immunofluorescence intensity relative to DMSO (% of DMSO); higher = stronger H1.0 induction, active = 120 or more
conditions: concentration: 10 µM; 24 h
# output must be one of t for active, f for inactive

Sample answers from the record:
Prompt: Lab log entry: Cc1cc2c(C(C)C)c(O)c(O)c(C=O)c2c(O)c1-c1c(C)cc2c(C(C)C)c(O)c(O)c(C=O)c2c1O — outcome as called in the assay?
Response: f

Prompt: Per the assay record, what outcome was assigned to C/C(Nc1ccccc1)=C1\C(=O)NC(Cc2ccccc2)C1=O (centres undefined) ?
Response: t

Prompt: Called result for CCCN(CCC)C1CCc2ccc(O)cc2C1 (racemic)
Response: f

Next:
Prompt: Tell me the assay call for NC(N)=NOCC[C@H](N)C(=O)O.O=S(=O)(O)O [L-Canavanine sulfate] please.
Response: f

----------
Test system: HCC1569
assay.protocol: H1.0 immunofluorescence intensity relative to DMSO (% of DMSO); higher = stronger H1.0 induction, active = 140 or more
conditions: concentration: 10 µM; 24 h
Choose the fitting class; nothing outside active, inactive is accepted.

Check out these entries, answers already filled in.
Prompt: Given COc1cc2c(c(OC)c1OC)-c1ccc(OC)c(=O)cc1C(NC(C)=O)CC2 (stereo unspecified) , state the outcome it received in this test.
Response: inactive

Prompt: What outcome does the record of this test show for O=C(O)C(=O)c1cn(Cc2ccccc2)c2ccc(-c3ccc(OC(F)(F)F)cc3)cc12 ?
Response: inactive

Prompt: Dear all, I need the recorded test outcome for COC1=CC(=O)OC(CCc2ccc3c(c2)OCO3)C1 (stereo unspecified) [Dihydromethysticin] , thank you.
Response: inactive

New cases:
Prompt: Dear colleague, could you share the recorded outcome for CCC(C(=O)O)C1CCC(C)C(C(C)C(O)C(C)C(=O)C(CC)C2OC3(C=CC(O)C4(CCC(C)(C5CCC(O)(CC)C(C)O5)O4)O3)C(C)CC2C)O1 (stereo unspecified) when you have a moment?
Response: inactive

Prompt: Could you check what this test reported for CC1CC2CCC(O2)C(C)C(=O)OC(C)CC2CCC(O2)C(C)C(=O)OC(C)CC2CCC(O2)C(C)C(=O)OC(C)CC2CCC(O2)C(C)C(=O)O1 (stereo unspecified) ?
Response: active

Prompt: For this compound, state the assay outcome: COc1cc(C=C(C#N)C#N)cc(O)c1O
Response: inactive

Prompt: I would be grateful if you could indicate the recorded call for CC(C)N(CCC(C(N)=O)(c1ccccc1)c1ccccn1)C(C)C.O=P(O)(O)O (stereo unspecified) .
Response: inactive

Prompt: For C=C1C2CC3(C1O)C1CC4C5(C)CCC(O)C4(C1N(CC)C5)C3CC2=O (stereo unspecified) , which call appears in the assay record?
Response: inactive

Prompt: // return assay outcome for Cl.NC(=O)c1ccc(OCC(O)CN2CC=C(c3ccc(F)cc3)CC2)cc1 (stereo unspecified)
Response: inactive

Prompt: Tell me the assay call for COc1ccc(C(CN(C)C)C2(O)CCCCC2)cc1 (stereo unspecified) please.
Response: inactive

Prompt: I'd appreciate the recorded outcome for COc1cc2c(cc1OC)[C@H]1CC(=O)[C@H](CC(C)C)CN1CC2 from this test.
Response: inactive

----------
Tested on: HCC1569
assay.protocol: H1.0 immunofluorescence intensity relative to DMSO (% of DMSO); higher = stronger H1.0 induction, active = 140 or more
conditions: concentration: 10 µM; 24 h
measurement.kind: H1.0 immunofluorescence intensity

Prompt: What does the data say about its H1.0 immunofluorescence intensity? Entry: NC(=O)CI [Iodoacetamide]
Response: 170 (active)

Prompt: Which H1.0 immunofluorescence intensity value is on record for CN1CCC23CCCCC2C1Cc1ccc(O)cc13.O=C(O)C(O)C(O)C(=O)O [Dextrorphan D-tartrate] ?
Response: 89.2 (inactive)

Prompt: Would you kindly share the measured H1.0 immunofluorescence intensity for CC1OC(OC2CC(O)C3(CO)C4C(O)CC5(C)C(C6COC(=O)C6)CCC5(O)C4CCC3(O)C2)C(O)C(O)C1O (configuration not stated) [Dihydroouabain] ?
Response: 82.2 (inactive)

Next:
Prompt: I am curious: what H1.0 immunofluorescence intensity value has been reported for CCCCCCC1C(=O)OC(C)C(NC(=O)c2cccc(NC=O)c2O)C(=O)OC(C)C1OC(=O)CC(C)C (configuration not stated) [Antimycin A1] ?
Response: 136 (inactive)

Prompt: Looking for the measured H1.0 immunofluorescence intensity of CC(=O)OC1C(=O)C2(C)C(O)CC3OCC3(OC(C)=O)C2C(OC(=O)c2ccccc2)C2(O)CC(O)C(C)=C1C2(C)C (configuration not stated) , can you help?
Response: 105 (inactive)

Prompt: Name the reported H1.0 immunofluorescence intensity value associated with the compound CN1C2CCC1CC(OC(=O)c1cc(Cl)cc(Cl)c1)C2 (configuration not stated) [3-Tropanyl-3,5-dichlorobenzoate]
Response: 108 (inactive)

Prompt: Fill in the blank: the reported H1.0 immunofluorescence intensity of CC1OCC(C[N+](C)(C)C)O1.[I-] (single isomer, unassigned; (+)) [(+)-cis-Dioxolane iodide] is ____.
Response: 99.6 (inactive)

----------
System: TDF
assay.protocol: cell number relative to DMSO (% of DMSO); higher = more cells (less growth inhibition / toxicity)
conditions: concentration: 10 µM; 24 h
measurement.kind: cell number

Record excerpt, results attached:
Prompt: I am curious: what cell number value has been reported for OCC1CCCN2CCCCC12 (stereo unspecified) ?
Response: 104

Prompt: Consider the compound shown here: NC(=O)COc1c(F)cc(SCCNS(=O)(=O)c2ccccc2)cc1F What is its recorded cell number?
Response: 102

Prompt: // cell number lookup, key: CC12CCC(O)CC1CCC1C2CCC2(C)C(C(=O)CO)CCC12 (stereo not drawn) [3-alpha,21-Dihydroxy-5-alpha-pregnan-20-one]
Response: 89

Prompt: I am curious: what cell number value has been reported for CN(C)CCc1ccc(O)cc1.CN(C)CCc1ccc(O)cc1.O=S(=O)(O)O [Hordenine sulfate] ?
Response: 99.9

Prompt: Would you mind telling me what cell number value was observed for CCCN1CCCC(c2cccc(O)c2)C1.Cl (stereo not drawn) [S(-)-3PPP hydrochloride] ?
Response: 110

---
Prompt: Item CCCCCC=CCC=CCC=CCC=CCCCC(=O)NCCc1ccc(O)c(O)c1 has what recorded cell number?
Response: 91.8

Prompt: # input compound: CC12NC(Cc3ccccc31)c1ccccc12.O=C(O)C=CC(=O)O (single isomer, unassigned; (+)) [(+)-MK-801 hydrogen maleate] ; wanted: its cell number
Response: 99

Prompt: Please look up its cell number: Br.CC(Cc1ccc(O)cc1)NCC(O)c1cc(O)cc(O)c1 (stereo unspecified) [Fenoterol hydrobromide]
Response: 105

Prompt: Request the reported cell number associated with COC(C(=O)C(O)C(C)O)C1Cc2cc3cc(OC4CC(OC5CC(O)C(OC)C(C)O5)C(OC(C)=O)C(C)O4)c(C)c(O)c3c(O)c2C(=O)C1OC1CC(OC2CC(OC3CC(C)(O)C(OC(C)=O)C(C)O3)C(O)C(C)O2)C(O)C(C)O1 (stereo unspecified)
Response: 19.4
